Numbers sourced from ChEMBL document CHEMBL1137180.

target_desc: Disintegrin and metalloproteinase domain-containing protein 17 (Sus scrofa, UniProt O77636)
Sequence (O77636 whole entry, the tested form may be a part): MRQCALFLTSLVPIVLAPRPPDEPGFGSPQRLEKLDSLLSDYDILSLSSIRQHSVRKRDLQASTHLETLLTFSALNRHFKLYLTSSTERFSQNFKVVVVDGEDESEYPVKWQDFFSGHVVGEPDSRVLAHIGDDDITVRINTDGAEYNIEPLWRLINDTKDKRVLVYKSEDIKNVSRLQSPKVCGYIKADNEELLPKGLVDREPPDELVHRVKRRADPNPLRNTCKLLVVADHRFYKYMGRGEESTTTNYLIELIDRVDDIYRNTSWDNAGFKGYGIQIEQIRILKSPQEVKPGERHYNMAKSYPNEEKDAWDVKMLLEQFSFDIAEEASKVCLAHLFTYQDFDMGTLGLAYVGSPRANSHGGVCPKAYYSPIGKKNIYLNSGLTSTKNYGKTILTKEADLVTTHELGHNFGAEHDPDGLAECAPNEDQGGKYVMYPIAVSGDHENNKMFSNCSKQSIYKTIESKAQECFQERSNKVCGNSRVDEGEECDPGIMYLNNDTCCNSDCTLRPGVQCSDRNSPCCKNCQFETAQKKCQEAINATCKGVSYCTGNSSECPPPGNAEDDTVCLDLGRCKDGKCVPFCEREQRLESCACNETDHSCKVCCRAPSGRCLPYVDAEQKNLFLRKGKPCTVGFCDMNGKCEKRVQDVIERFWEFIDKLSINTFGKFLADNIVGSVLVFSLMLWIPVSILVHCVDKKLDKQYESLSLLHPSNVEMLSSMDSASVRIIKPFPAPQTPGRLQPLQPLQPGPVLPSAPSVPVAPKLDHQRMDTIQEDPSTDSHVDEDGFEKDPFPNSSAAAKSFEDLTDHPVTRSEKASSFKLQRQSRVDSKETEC
measure: IC50

molecule	IC50
Cc1cc(COc2ccc(S(=O)(=O)CC3CNCCC3C(=O)NO)cc2)c2ccccc2n1 (configuration not stated)	1 nM

Would you mind giving IC50 for every molecule in the list below?
1. Cc1cc(COc2ccc(S(=O)(=O)CC3CN(C)CCC3C(=O)NO)cc2)c2ccccc2n1 (configuration not stated)
2. C=CCN1CCC(C(=O)NO)C(CS(=O)(=O)c2ccc(OCc3cc(C)nc4ccccc34)cc2)C1 (configuration not stated)

output:
< 1.9 nM
1.8 nM

Provide each entry's IC50 from the list below.
1. Cc1cc(COc2ccc(S(=O)(=O)CC3(CC(=O)NO)CCN(C)CC3)cc2)c2ccccc2n1
2. Cc1cc(COc2ccc(S(=O)(=O)CC3(CC(=O)NO)CCCN3CC(C)C)cc2)c2ccccc2n1 (configuration not stated)
3. Cc1cc(COc2ccc(S(=O)(=O)CC3(CC(=O)NO)COC3)cc2)c2ccccc2n1
4. Cc1cc(COc2ccc(S(=O)(=O)CC3(CC(=O)NO)CCCC3)cc2)c2ccccc2n1
5. Cc1cc(COc2ccc(S(=O)(=O)CC3(CC(=O)NO)CCNCC3)cc2)c2ccccc2n1
6. Cc1cc(COc2ccc(S(=O)(=O)CC3(CC(=O)NO)CCCCC3)cc2)c2ccccc2n1
7. Cc1cc(COc2ccc(S(=O)(=O)CC3NCCCC3C(=O)NO)cc2)c2ccccc2n1 (configuration not stated)

output:
1: < 2 nM; 2: 20 nM; 3: 1 nM; 4: < 0.8 nM; 5: 14 nM; 6: < 1 nM; 7: < 1 nM

Batch lookup, IC50 per entry.
1. Cc1cc(COc2ccc(S(=O)(=O)CC3CN(C(C)C)CCC3C(=O)NO)cc2)c2ccccc2n1 (configuration not stated)
2. Cc1cc(COc2ccc(S(=O)(=O)CC3NCCC3C(=O)NO)cc2)c2ccccc2n1 (configuration not stated)

output:
1: 1.5 nM; 2: < 1 nM

* * *

target_desc: Disintegrin and metalloproteinase domain-containing protein 17 (Homo sapiens, UniProt P78536)
Sequence (P78536 whole entry, the tested form may be a part): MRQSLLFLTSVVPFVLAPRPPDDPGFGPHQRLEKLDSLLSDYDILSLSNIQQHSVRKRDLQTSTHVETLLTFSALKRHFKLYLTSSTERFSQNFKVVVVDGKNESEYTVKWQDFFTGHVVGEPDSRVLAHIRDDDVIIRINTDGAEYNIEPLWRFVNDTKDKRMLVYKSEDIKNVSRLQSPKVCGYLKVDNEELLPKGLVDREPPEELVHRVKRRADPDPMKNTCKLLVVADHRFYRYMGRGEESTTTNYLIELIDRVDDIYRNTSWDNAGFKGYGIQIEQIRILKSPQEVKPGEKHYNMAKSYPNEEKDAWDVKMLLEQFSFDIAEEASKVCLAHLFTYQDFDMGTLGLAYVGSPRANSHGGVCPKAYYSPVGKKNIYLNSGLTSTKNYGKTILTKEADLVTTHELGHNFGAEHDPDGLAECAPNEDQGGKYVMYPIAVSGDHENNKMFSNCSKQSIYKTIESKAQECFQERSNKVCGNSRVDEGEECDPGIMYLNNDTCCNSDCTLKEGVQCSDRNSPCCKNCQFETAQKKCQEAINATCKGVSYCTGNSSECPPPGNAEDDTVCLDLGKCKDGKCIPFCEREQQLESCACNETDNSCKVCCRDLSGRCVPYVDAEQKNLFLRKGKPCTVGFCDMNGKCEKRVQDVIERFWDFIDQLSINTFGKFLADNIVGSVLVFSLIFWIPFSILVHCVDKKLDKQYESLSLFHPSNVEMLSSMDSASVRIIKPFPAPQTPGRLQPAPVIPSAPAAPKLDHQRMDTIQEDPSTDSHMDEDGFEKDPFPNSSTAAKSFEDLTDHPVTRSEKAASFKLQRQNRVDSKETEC
assay_protocol: Effect on TNF-Alpha release in LPS-stimulated human whole blood assay
Please respond with 1.0 when measured IC50 is strictly beneath 400 nM, and with 0.0 in all other cases.

Consider the following illustrative entries.
compound	label_value
C=CCN1CCC(C(=O)NO)C(CS(=O)(=O)c2ccc(OCc3cc(C)nc4ccccc34)cc2)C1 (stereo not given)	1.0
Cc1cc(COc2ccc(S(=O)(=O)CC3(CC(=O)NO)CCC3)cc2)c2ccccc2n1	1.0
Cc1cc(COc2ccc(S(=O)(=O)CC3CCN(C)CC3C(=O)NO)cc2)c2ccccc2n1 (stereo not given)	0.0
CCCCCN1CCC(CC(=O)NO)(CS(=O)(=O)c2ccc(OCc3cc(C)nc4ccccc34)cc2)C1 (stereo not given)	0.0
Cc1cc(COc2ccc(S(=O)(=O)CC3(CC(=O)NO)CCCN3C)cc2)c2ccccc2n1 (stereo not given)	0.0
Cc1cc(COc2ccc(S(=O)(=O)CC3(CC(=O)NO)CCN(C)CC3)cc2)c2ccccc2n1	1.0

input: Lab note: IC50 threshold 400 nM. Does this compound come in strictly under it? CCCCN1CCC(C(=O)NO)C(CS(=O)(=O)c2ccc(OCc3cc(C)nc4ccccc34)cc2)C1 (stereo not given)
output: 0.0

input: Given the entry CCC(C)N1CCC(C(=O)NO)C(CS(=O)(=O)c2ccc(OCc3cc(C)nc4ccccc34)cc2)C1 (stereo not given) , would its reported IC50 be below 400 nM?
output: 0.0

input: I'd appreciate it if you could check whether Cc1cc(COc2ccc(S(=O)(=O)CC3C(C(=O)NO)CCCN3C)cc2)c2ccccc2n1 (stereo not given) has IC50 smaller than 400 nM.
output: 0.0

input: Is it true that IC50 reported for `CONC(=O)[C@H]1CCCN(C)[C@@H]1C(=O)Nc1ccc(OCc2cc(C)nc3ccccc23)cc1` is less than 400 nM?
output: 1.0

input: Find out if reported IC50 for Cc1cc(COc2ccc(S(=O)(=O)CC3(CC(=O)NO)CCN(C(C)C)C3)cc2)c2ccccc2n1 (stereo not given) is less than 400 nM
output: 1.0

input: I wonder whether Cc1cc(COc2ccc(S(=O)(=O)CC3(CC(=O)NO)CCCNC3)cc2)c2ccccc2n1 (stereo not given) has IC50 below 400 nM. Can you tell?
output: 1.0

input: Is IC50 of Cc1cc(COc2ccc(S(=O)(=O)CC3CN(C(C)C)CCC3C(=O)NO)cc2)c2ccccc2n1 (stereo not given) strictly below 400 nM?
output: 1.0

input: Consider Cc1cc(COc2ccc(S(=O)(=O)CC3(CC(=O)NO)CCCN(C)C3)cc2)c2ccccc2n1 (stereo not given) . Does its IC50 lie strictly below 400 nM?
output: 1.0

input: Here's an entry: Cc1cc(COc2ccc(S(=O)(=O)CC3CN(C)CCC3C(=O)NO)cc2)c2ccccc2n1 (stereo not given) . Is its IC50 below 400 nM?
output: 1.0

input: Field: below-cutoff. Rule: recorded IC50 strictly less than 400 nM. Subject: `Cc1cc(COc2ccc(S(=O)(=O)CC3(CC(=O)NO)CCCCC3)cc2)c2ccccc2n1`
output: 0.0

input: Regarding `Cc1cc(COc2ccc(S(=O)(=O)CC3(CC(=O)NO)CCCC3)cc2)c2ccccc2n1` , kindly confirm whether its IC50 is beneath 400 nM.
output: 0.0

input: Please let me know if Cc1cc(COc2ccc(S(=O)(=O)CC3NCCC3C(=O)NO)cc2)c2ccccc2n1 (stereo not given) shows IC50 below 400 nM.
output: 1.0

input: I wonder whether Cc1cc(COc2ccc(S(=O)(=O)CC3(CC(=O)NO)CCNC3)cc2)c2ccccc2n1 (stereo not given) has IC50 below 400 nM. Can you tell?
output: 1.0

input: Lab log: compare recorded IC50 with 400 nM; is it strictly lower for Cc1cc(COc2ccc(S(=O)(=O)CC3(CC(=O)NO)CCCCN3)cc2)c2ccccc2n1 (stereo not given) ?
output: 0.0

input: Would you kindly verify if IC50 of Cc1cc(COc2ccc(S(=O)(=O)CC3C(C(=O)NO)CCN3C)cc2)c2ccccc2n1 (stereo not given) is strictly less than 400 nM?
output: 1.0

input: State whether 400 nM exceeds IC50 recorded for Cc1cc(COc2ccc(S(=O)(=O)CC3(CC(=O)NO)CCCN(CC(C)C)C3)cc2)c2ccccc2n1 (stereo not given) .
output: 0.0

input: hey, is IC50 for Cc1cc(COc2ccc(S(=O)(=O)CC3(CC(=O)NO)CCN(C)C3)cc2)c2ccccc2n1 (stereo not given) lower than 400 nM or not?
output: 1.0

input: In plain terms, does `Cc1cc(COc2ccc(S(=O)(=O)CC3(CC(=O)NO)COC3)cc2)c2ccccc2n1` come in under 400 nM for IC50?
output: 0.0
